Recorded values, source patent US20190071490A1.

// reported α-human koff per item
Biological target: T1, human α-CGRP (Homo sapiens, UniProt P06881)
T1 construct: 1-37 (WT); purchased GenScript Corporation or Global Peptide Services
T1 sequence (P06881 83-119 limits assumed): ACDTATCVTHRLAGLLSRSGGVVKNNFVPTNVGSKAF
Assay: Biacore SPR affinity of Fab fragments to N-biotinylated human α-CGRP on SA chip
Type: binding
Details: 37° C., screening mode except underlined values
Lab book: enter the figure in s⁻¹, no units written.

Completed entries (count: 3):
M54: G1 variant; L1 R28N T30A; L2 G50A; H2 E54K A57N S58P; HC-FW3 L99T A100V (antibody, V domains shown) VH: EVQLVESGGGLVQPGGSLRLSCAASGFTFSNYWISWVRQAPGKGLEWVAEIRSKSDNPATHYAEAVKGRFTISRDNAKNSLYLQMNSLRAEDTAVYYCTVYFDYGLAIQNYWGQGTLVTVSS VL: EIVLTQSPATLSLSPGERATLSCKASKNVATYVSWYQQKPGQAPRLLIYAASNRYLGIPARFSGSGSGTDFTLTISSLEPEDFAVYYCSQSYNYPYTFGQGTKLEIK	0.00179
M82: G1 variant; L1 R28N T30V; L2 A51H L56T; H2 A57N; HC-FW3 L99T A100V (antibody, V domains shown) VH: EVQLVESGGGLVQPGGSLRLSCAASGFTFSNYWISWVRQAPGKGLEWVAEIRSESDNSATHYAEAVKGRFTISRDNAKNSLYLQMNSLRAEDTAVYYCTVYFDYGLAIQNYWGQGTLVTVSS VL: EIVLTQSPATLSLSPGERATLSCKASKNVVTYVSWYQQKPGQAPRLLIYGHSNRYTGIPARFSGSGSGTDFTLTISSLEPEDFAVYYCSQSYNYPYTFGQGTKLEIK	0.000877
M22: G1 variant; L1 R28W; HC-FW3 L99T (antibody, V domains shown) VH: EVQLVESGGGLVQPGGSLRLSCAASGFTFSNYWISWVRQAPGKGLEWVAEIRSESDASATHYAEAVKGRFTISRDNAKNSLYLQMNSLRAEDTAVYYCTAYFDYGLAIQNYWGQGTLVTVSS VL: EIVLTQSPATLSLSPGERATLSCKASKWVTTYVSWYQQKPGQAPRLLIYGASNRYLGIPARFSGSGSGTDFTLTISSLEPEDFAVYYCSQSYNYPYTFGQGTKLEIK	0.000116

Shifting focus to the molecule that follows.
Dear colleague, please send me the reported α-human koff for M66: G1 variant; L1 R28N T30G; L2 L561; H2 E54K A57E; HC-FW3 L99T A100V (antibody, V domains shown) VH: EVQLVESGGGLVQPGGSLRLSCAASGFTFSNYWISWVRQAPGKGLEWVAEIRSKSDESATHYAEAVKGRFTISRDNAKNSLYLQMNSLRAEDTAVYYCTVYFDYGLAIQNYWGQGTLVTVSS VL: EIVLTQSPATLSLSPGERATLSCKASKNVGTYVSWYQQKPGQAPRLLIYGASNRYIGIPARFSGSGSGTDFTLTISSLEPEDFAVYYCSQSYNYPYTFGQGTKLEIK when you can. 0.00052
